// values below are reported folding stability dG unfold
ASSAY_METHOD_TEXT: folding stability dG unfold from chymotrypsin proteolysis; higher = more stable
Unit kcal/mol implied. Number only.

Please review the entries below; each comes with its answer.
SEQUENCE | MEASURED_NUMBER
SMLTITDENGNTITLPAAGEPVTLTVEIEVDGYTVTVEITFDADTKKITIKVEVTNPNGEKQTFTFTFDLSA [r9_1073_TrROS_Hall] | 4.23
SAGGPKIKIEAFPDGTVKITIELPDGVTIVIELKFDPETGTVHAKITLLPKDKPVTFEFTFKIPPDASAGGS [r16_230_TrMRF] | 4.34
SAETRTLTIRIPAKDLTPEQIRALLRALLPEDATITEVRIERDEDGYITVTIVVTNPDGSKQEIRLVFPSAG [r14_30_TrROS_Hall] | 2.64
SAGGSAGGSAGGGMAYTVETEVTLTPDGTRVVRTTVTIEDTEVEETHVTPVAPAAPEGLSAGGSAGGSAGGS [r10_898_JUSTAS] | -0.079
SAGGSAAGAERVTYNYMIPNDGKWFMIRITIYRFEVKRDPEDNKYKLDLPPGDQLFINTEIMWFPNSAGGSA [r15_1040_TrROS] | 4.14

Problem: Using the record for SAGGSAGGSGGMMKVIVSVSPGEEAVEKVNKLVNETDLPPIEVIIIPHSPDDPIVVAILLLLLSAGGSAGGS [r12_649_JUSTAS] , report its folding stability dG unfold.
Result: 3.12

Problem: Using the record for SAGGMITLEIELEDGTKIKIEITRLVSYDEEKGYAIFEAKITVEKDGKKFEKTITIIVKKGTKPGEIISAGG [r13_823_TrROS_Hall] , report its folding stability dG unfold.
Result: 4.01

====

ASSAY_METHOD_TEXT: folding stability dG unfold from chymotrypsin proteolysis; higher = more stable
MEASUREMENT_NAME: folding stability dG unfold (kcal/mol)
Unit kcal/mol implied. Number only.

Please review the entries below; each comes with its answer.
SEQUENCE | UNITS | folding stability dG unfold
SAGGSAGGSAGPKPLATITLPYPDNASVTITVTPNGVLIDPDPNITNPEVEKAVADALTDSAGGSAGGSAGG [r11_372_TrMRF] | kcal/mol | 1.07
SAGGSAGGSAGEMYKIKIFNKETGKELTLVFESEEEAKEALKKKFPNAKIEIEKISKEELSAGGSAGGSAGG [r11_978_TrROS_Hall] | kcal/mol | 3.1
SAGGSAGGSAPPNLKIEIDLQRHPEDDHIFLEMEATYPDDGKELKVMIMINPDDGKIGIMIMSAGGSAGGSA [r18_383_TrROS] | kcal/mol | 3.7
SAGGPTVVLRVRDADGNLVTVTFDEETKRITVTVVRDGKTRTLTVDMTVDEAIARLRDLFPVEVELVPSAGG [r13_141_TrROS_Hall] | kcal/mol | 3.05
SAGGSAGGSAMSEEERRRRAEEERRKKPPVFKITEITVERDEDGNLRVTFRLEDGSTVTIELSAGGSAGGSA [r18_423_TrROS_Hall] | kcal/mol | 3.33

Problem: Using the record for SAGGPTLKVKIYLPEEGKVIEFTFEAKKDEAEKIAKELEKLFPGYKLEGVKIFETPDSIELLAVASPESAGG [r13_196_TrMRF] , report its folding stability dG unfold.
Result: 3.65

Problem: Using the record for SAGGGVTITLKTADGKTLTLEIPGLTSVTVEPDKVTVEFEIPDYRITITFNPSTGTVEIKISHPDEPESAGG [r13_392_TrMRF] , report its folding stability dG unfold.
Result: 3.93
